Experiment: Volume of distribution at steady state in cynomolgus monkey at 0.1 mg/kg, iv administered as 30 mins infusion by HPLC-MS analysis
Type: ADME, organism-based, Macaca fascicularis
Conditions: in vivo, read-out: Vdss
property: Vd (L/kg)
Kindly answer with a numeric value in L/kg, unit omitted.

Could you share which Vd value was measured for CCCC[C@](C)(CO)Nc1nc(N)nc2cc(F)cnc12 [SELGANTOLIMOD] ? 2.1

###

Assay: Cmax in Beagle dog at 0.5 mg/kg, po administered via gavage by HPLC-MS analysis
Assay type: ADME, organism-based, Canis lupus familiaris
Design: route oral, dose 0.5 mg/kg
Details: in vivo
property: Cmax (nM)
Kindly answer with a numeric value in nM, unit omitted.

Could you share which Cmax value was measured for CCCC[C@](C)(CO)Nc1nc(N)nc2cc(F)cnc12 ? 9.7
